# EXPERIMENT DESCRIPTION: cytotoxicity in HPDE-C7 cells, cell-based, fluorescence, HTS (AID 430);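 note: cells exposed to compound for 48 hours before viability readout; 0% = vehicle and 100% = reference cytotoxic drug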
# TEST CONDITIONS: HPDE-C7 pancreatic duct cells viability, at 10 µM, stronger effect = higher value
Out of some 63,000 compounds screened, about 1,100 (1.7%) were called active. For the sample, actives were picked, then their nearest neighbours and some compounds at random. Results with a measured potency or affinity are listed apart.
QUANTITY NAME: cytotoxicity (%)
Reply with just the number (in %).

compound=Cn1c(=O)c2cc(S(=O)(=O)NCCC(=O)N3CC=C(c4ccccc4)CC3)ccc2n(C)c1=O measured_number=-11.2
compound=Cc1cc(C(=O)Nc2sc3c(c2C#N)CCCC3)no1 measured_number=-1.6
compound="Cc1csc(NC(=O)C(Cc2ccccc2)n2cccc2)n1 (stereo not drawn)" measured_number=14.2
compound="O=S(=O)(c1ccc(Cl)cc1)N1CCSC1c1ccco1 (stereo not drawn)" measured_number=8.1

Look up cytotoxicity for this compound: O=C(Nc1ccc(Cl)c(Cl)c1)N1CCSC1c1ccco1 (stereo not drawn) 62.5

Param item: `O=C(c1ccc(Cl)cc1)C1CCN(C(=O)NC2CCCCC2)CC1` -11.6

Would you mind doing Cc1ccc(NC(=O)N2CCCC2C(=O)NCCc2ccccc2)cc1 (stereo not drawn) as well? -9.2

Again, but for `O=C(CCc1nc2ccccc2c(=O)[nH]1)OCc1nnc(-c2ccccc2)o1` 8.5

Next up: `Cc1cc(N2CCN(C(=O)c3ccco3)CC2)n2nc(C)c(-c3ccccc3)c2n1` 7.9
